All figures here come from patent US20220220103A1.

Quick list: IC50 per entry.
Target: CDK2-CYCLINA (Homo sapiens, UniProt P24941)
Assay: Microfluidic LabChip inhibition assay, CDK2-CYCLINA
Assay type: biochemical
Conditions: Table 3b; ATP 50 μM

molecule | IC50
CC(=O)c1c(C)c2cnc(Nc3ccc(OCCN4CCCC4)cn3)nc2n(C2CCCC2)c1=O | > 10000 nM
Cc1c(C(=O)N(C)C)c(=O)n(C23CC(C2)C3)c2nc(NC3CCN(S(C)(=O)=O)CC3)ncc12 | 1020 nM
COc1cc(Nc2ncc3c(C)c(C(C)=O)c(=O)n(C4CCCC4)c3n2)ccc1OCCN(C)C | 280 nM
CC(=O)c1c(C)c2cnc(Nc3ccc(N(C)CCN(C)C)cc3)nc2n(C2CCCC2)c1=O | 81.6 nM
CS(=O)(=O)N1CCC(Nc2ncc3cc(C#N)c(=O)n(C4CCCC4)c3n2)CC1 | 15.3 nM
CS(=O)(=O)N1CCC(Nc2ncc3cc(C#N)c(=O)n(C45CC(C4)C5)c3n2)CC1 | > 10000 nM
Cc1c(C(=O)N(C)C)c(=O)n(C23CC(C2)C3)c2nc(NC3CC4CCC3C4)ncc12 (centres unmarked) [Compound B157] | 5250 nM
CN(C)CCOc1ccc(Nc2ncc3cc(C#N)c(=O)n(C45CC(C4)C5)c3n2)nc1 | > 10000 nM

###

Quick list: pIC50 per entry.
Molecular target: UniProtKB P24941
Test: Microfluidic LabChip inhibition assay, CDK2-CYCLINA
Assay type: biochemical
Details: Table 3a; ATP 50 μM
pIC50: −log10 of the molar value.

compound | target-entity | qualifier-operator | pIC50
CC(=O)c1c(C)c2cnc(Nc3ccc(N(C)CCN(C)C)cc3)nc2n(C23CC(C2)C3)c1=O [Compound B154] | UniProtKB P24941 | = | 5.82
N#Cc1cc2cnc(Nc3ccc(N4CCN(CCO)CC4)c(F)c3)nc2n(C2CCCC2)c1=O [Compound B106] | UniProtKB P24941 | = | 6.51
Cc1c(C(=O)N(C)C)c(=O)n(C2CCCC2)c2nc(Nc3ccc(N4CC(C)NC(C)C4)cc3)ncc12 (stereo not shown) [Compound B151] | UniProtKB P24941 | < | 5.00
CC(=O)c1c(C)c2cnc(Nc3ccc(OCCN(C)C)cc3)nc2n(C2CCCC2)c1=O [Compound B60] | UniProtKB P24941 | = | 7.11
CS(=O)(=O)N1CCC(Nc2ncc3cc(C#N)c(=O)n(C45CC(C4)C5)c3n2)CC1 [Compound B113] | UniProtKB P24941 | < | 5.00
Cc1c(C(=O)N(C)C)c(=O)n(C23CC(C2)C3)c2nc(NC3CCN(S(C)(=O)=O)CC3)ncc12 [Compound B156] | UniProtKB P24941 | = | 5.99
CC(=O)c1c(C)c2cnc(Nc3ccc(OCCN(C)C)c(C)c3)nc2n(C2CCCC2)c1=O [Compound B61] | UniProtKB P24941 | = | 5.11
CC(=O)c1c(C)c2cnc(Nc3ccc(N4CC(C)NC(C)C4)cc3)nc2n(C2CCCC2)c1=O (stereo not shown) [Compound B150] | UniProtKB P24941 | = | 6.71
Cc1c(C(=O)N(C)C)c(=O)n(C23CC(C2)C3)c2nc(NC3CC4CCC3C4)ncc12 (stereo not shown) [Compound B158] | UniProtKB P24941 | < | 5.00
CC(=O)c1c(C)c2cnc(Nc3ccc(N4CCN(C)CC4)cc3)nc2n(C23CC(C2)C3)c1=O [Compound B96] | UniProtKB P24941 | = | 5.55
Cc1c(C(=O)N(C)C)c(=O)n(C23CC(C2)C3)c2nc(NC3CC4CCC3C4)ncc12 (stereo not shown) [Compound B157] | UniProtKB P24941 | = | 5.28
CN(C)CCOc1ccc(Nc2ncc3cc(C#N)c(=O)n(C45CC(C4)C5)c3n2)nc1 [Compound B149] | UniProtKB P24941 | < | 5.00
CS(=O)(=O)N1CCC(Nc2ncc3cc(C#N)c(=O)n(C4CCCC4)c3n2)CC1 [Compound B152] | UniProtKB P24941 | = | 7.82
CC(=O)c1c(C)c2cnc(Nc3ccc(OCCN4CCCC4)cn3)nc2n(C2CCCC2)c1=O [Compound B66] | UniProtKB P24941 | < | 5.00
CC(=O)c1c(C)c2cnc(Nc3ccc(N4CCN(C)CC4)cn3)nc2n(C23CC(C2)C3)c1=O [Compound B93] | UniProtKB P24941 | < | 5.00
CN1CC2(C1)CN(c1ccc(Nc3ncc4cc(C#N)c(=O)n(C5CCCC5)c4n3)cc1)C2 [Compound B159] | UniProtKB P24941 | = | 6.30
